Where do the numbers come from? From PubChem BioAssay (NCI).

Test system: LOX IMVI melanoma
EXPERIMENT NOTES: NCI-60 one-dose screen, 48 h (100 = growth as untreated, 0 = no growth, -100 = all killed)
CONDITION INFO: 10 µM unless noted
This is part of a sample that, as a whole, favours compounds with a hit. Of some 83,000 tested, about 20% had one in any assay.
Label True when growth is at or above 90%; anything below gets False.

                                    compound  classification
 0       CCC(O)C(C)(C)C (stereo unspecified)            True
 1  COc1cc2c(-c3nc4cc(Cl)c(F)cc4s3)cc(=O)oc2c(C)c1OC           False
 2        NC(N)=N/N=C(/c1ccccc1)c1ccc(Cl)cc1           False
 3  COc1cc(/C=C/C(=O)N2CCN(C(=O)/C=C/c3ccccc3)CC2)cc(OC)c1OC            True
 4     O=C1c2nsnc2C(=O)c2c(F)c(F)c(F)c(F)c21           False
 5                   S=c1[nH]nc2sc3ccccc3n12            True
 6  COc1ccc(-c2c3c(nn2-c2ccc(N)cc2)CCc2cnoc2-3)cc1OC           False
 7                       CC(C)C(=O)Cc1cnccn1            True
 8  CCOC(=O)C1C(=O)OC2CCCCC21 (stereo unspecified)            True
 9                           CC1=CSC2=NCCN12            True
10         CCN(CC)CCCNCCCNc1cc(OC)cc2cccnc12           False
11  COc1ccc(/C=N\Nc2ccc([N+](=O)[O-])cn2)cc1OC           False
12   O=C(CSc1nnc(Nc2ccccc2)s1)NCCc1ccc(F)cc1            True
13  O=C1C2C3C=CC(O3)C2C(=O)N1Nc1ccccc1 (stereo unspecified)            True
14  C=C(C)[C@@H]1C/C=C(/C=O)CC[C@@H]2O[C@@]2(C)CC/C=C(\C)CC1            True

----------
Listing: growth of selected molecules
Test system: NCI-H460 lung
EXPERIMENT NOTES: NCI-60 one-dose screen, 48 h (100 = growth as untreated, 0 = no growth, -100 = all killed)
CONDITION INFO: 10 µM unless noted
The panel holds about 83,000 compounds, 20% with a hit somewhere; the sample as a whole holds those more often.

MOLECULE	growth / %
Nc1c2ccccc2nc2ccccc12 (tested in a mixture with another compound)	4.41
COc1ccc2[nH]cc(/C=C3/C(=O)Nc4ccc(Cl)cc43)c2c1	46.1
CC(=O)NC1(C(=O)O)CCCC1	109
Cc1cc2cn3c4cccnc4[nH]c(=O)c3c2cc1C	4.12
c1csc([C@@H]2C[C@@H]3Cc4ccc5ccccc5c4N2O3)c1	109
COc1cc(C2NC(c3ccc(Cl)cc3)C(C)C(=NC(=O)c3cnccn3)C2C)cc(OC)c1OC (configuration not stated)	103
O=C(/C=C/c1cc2ccccc2[nH]c1=O)c1ccc(O)cc1	1.97
COc1ccc(-c2c(-c3cc(OC)c(OC)c(OC)c3)noc2N)cc1	7.26
CN(C)c1ccc(/C=C(\C#N)c2nc3ccccc3c(=O)[nH]2)cc1	87.3
CCCCCCCC1(C)NC(=O)NC1=O (configuration not stated)	104
CC1=CSC2=NCCN12	109
CCOc1ccccc1C(=O)OCC(=O)Nc1cccc(S(=O)(=O)N(C)C)c1	102
Cc1cc(C)c2c(c1)N1OC(C2)C[C@H]1/C=C/c1ccccc1 (some centres not stated)	112
CN(C)c1ccc(/C=C\c2ccnc3ccccc23)cc1	86.9
CC1=C(C(=O)Nc2ccccc2)C(c2ccc3c(c2)OCCO3)NC(=O)N1 (configuration not stated)	107
CC(C)[C@H]1CC[C@H]2[C@@H](CC[C@H]3[C@](C)(CN)CCC[C@]23C)C1	-66.1
CC(C)(C)c1ccc(S(=O)(=O)O)s1	106
CCn1c2ccccc2c2ccc(C(C)=O)cc21	108
O=C(O)c1ccc(NC(=O)c2ccc(Nc3ccnc(C(F)(F)F)c3)cc2)cc1	113
CCN(CC)CCNc1ccc(Cl)cc1Cl	107
CC[N+](CC)(CCOCCOCC[N+](CC)(CC)Cc1ccc([N+](=O)[O-])cc1)Cc1ccc([N+](=O)[O-])cc1	96.8
COc1cc2c(cc1OCCCOc1ccc(-c3cc4ccccc4c4ccccc34)cc1)N=C[C@@H]1CCCN1C2=O	-45.2
c1cnc2n[nH]c(Nc3ncnc4c3sc3ncccc34)c2c1	96
O=C(Cc1ccccn1)C(F)(F)C(F)(F)C(F)(F)F	111
COc1ccc2nc3cc(Cl)ccc3c(N3CCN(c4ccnc(Nc5ccc(F)cc5)n4)CC3)c2c1	94
COC(=O)c1ccc2c(c1)nc(-c1ccc(O)c(OC)c1)n2-c1cc(C(C)(C)C)[nH]n1	96.3
COc1cc([C@@H]2c3cc4c(cc3C(O[C@@H]3O[C@@H]5CO[C@@H](c6cccs6)OC5[C@H](O)[C@H]3O)C3COC(=O)[C@@H]32)OCO4)cc(OC)c1O (some centres not stated)	-36.7
CCOC(=O)c1c(C)c(C(=O)OCC)n(C)c1C	117
S=c1[nH]nc2sc3ccccc3n12	111
CCCCCCOc1ccc(/C=N/NC(N)=S)cc1	92.6
Cc1cc(C)n(C(=O)c2nn(-c3ccc(Cl)cc3)cc2O)n1	5.55
CCC(=O)Nc1ccccc1C#C/C=C\C#Cc1ccccc1C(F)(F)F	10.2

----------
System: HT29 colon
EXPERIMENT NOTES: NCI-60 one-dose screen, 48 h (100 = growth as untreated, 0 = no growth, -100 = all killed)
CONDITION INFO: 10 µM unless noted
About 83,000 compounds went through this panel and 20% of them were active in at least one assay; those are over-represented in the sample as a whole.
Listing of entries alongside the reported growth.
ENDPOINT LABEL: growth (%)

>>> print(df.to_string())
                                   compound  endpoint_label  value
0            COc1ccc(/C=C(\C#N)c2ccccc2)cc1          growth   85.5
1      Cc1ccc(C=C2C(Cl)=C(Cl)C(Cl)=C2Cl)cc1          growth   8.19
2             CCCCCCOc1ccc(/C=N/NC(N)=S)cc1          growth   38.7
3  CCN1C[C@@H](C)n2c(c(O)c3c(=O)n(Cc4ccc(F)c(Cl)c4)nc(C(=O)NC)c32)C1=O          growth    106
4  COc1cc(C2CC(c3ccc(C)cc3)=NN2C(C)=O)ccc1Oc1ccnc2cc(Cl)ccc12 (centres undefined)          growth   77.1
5     Cc1ccccc1-c1cc(Cc2ccccc2O)c(=O)[nH]n1          growth    139
6   c1ccc(-c2nnc(Nc3nnc(-c4ccccc4)s3)s2)cc1          growth    106
7  Cc1cc(C(C)(C)c2cc(C)c(O)c(CN(C)C)c2)cc(CN(C)C)c1O          growth   76.3
8           Cc1cc(NC(=O)Nc2cccc3ccccc23)no1          growth    108

----------
Test system: SR leukemia
EXPERIMENT NOTES: NCI-60 one-dose screen, 48 h
CONDITION INFO: 10 µM unless noted
Compounds without any hit were thinned out: in the full panel of roughly 83,000, 20% have a hit. The source made the active and inactive calls. Rule for the calls: active = growth percent below 10; inactive = the rest.
Outcome codes: 1 (yes) (active), 0 (no) (inactive)

In [3]: df
Out[3]:
                                    compound  assayed_target  classification
 0  COC(=O)CCC1=C(C)/C(=C/c2[nH]c(-c3ccc[nH]3)cc2OC)N=C1C     SR leukemia         1 (yes)
 1                    OCc1nnn(-c2ccccc2)c1CO     SR leukemia          0 (no)
 2  CCOC(=O)c1c(NC(=O)C2CCCCC2C(=O)O)sc2c1CCCC2 (stereo unspecified)     SR leukemia          0 (no)
 3  COc1ccc(-c2nn(-c3ccccc3)cc2/C=C2\SC(=S)N(CCc3ccc(O)cc3)C2=O)cc1     SR leukemia          0 (no)
 4  CSc1nc2c(c(=O)n1C)C(c1ccccc1)C1=C(N2)/C(=C/c2ccccc2)CCC1 (stereo unspecified)     SR leukemia         1 (yes)
 5             CCn1c2ccccc2c2ccc(C(C)=O)cc21     SR leukemia          0 (no)
 6  COc1ccc2c(c1)C(=O)/C(=C/c1cccc(OCC(=O)c3ccccc3)c1)CC2     SR leukemia          0 (no)
 7  CCC1=C(c2ccc(OC)cc2)C(C)(C)Oc2c1ccc(O)c2CN1CCCC1     SR leukemia         1 (yes)
 8  Cc1nnc(Nc2ccc(NC(=O)Nc3ccc(Cl)cc3)cc2)c2ccccc12     SR leukemia         1 (yes)
 9  ClC1C2CC(c3ccccc32)C1Cl (stereo unspecified)     SR leukemia          0 (no)
10  CCN1CCN(c2cc(-c3cn[nH]c3-c3cc(C)cc(OC)c3)nc(-c3cccnc3)n2)CC1     SR leukemia         1 (yes)
11  COc1ccc(-c2cnnn2-c2cc(OC)c3c(c2)OCO3)cc1     SR leukemia         1 (yes)
12  CC(C)c1ccc(C(=O)Nc2sc3c(CN(C)C)c(O)ccc3c2C(N)=O)cc1     SR leukemia         1 (yes)
13  COc1ccc2c3c(c(OCCCN(C)C)nc2c1)-c1ccc(Cl)cc1C3=O     SR leukemia         1 (yes)
14  CCCCCCCC1(C)NC(=O)NC1=O (stereo unspecified)     SR leukemia          0 (no)
15  COc1cc(/C=C/C(=O)Nc2ccc3c(c2)/C(=C\c2cccn2C)C(=O)N3)cc(OC)c1OC     SR leukemia          0 (no)
16                Clc1ccc2nc(Cl)c3ccccc3c2c1     SR leukemia         1 (yes)
17  COc1ccc(-c2cn(-c3ccccc3)c(-c3ccccc3)n2)cc1OC     SR leukemia          0 (no)
18                           O=C1NCN(CCO)CN1     SR leukemia          0 (no)
19     CCCCC(C#N)C(N)=O (stereo unspecified)     SR leukemia          0 (no)
20  CCN(CC)c1ccc(C(O)C2=CC(=O)c3ccccc3C2=O)cc1 (stereo unspecified)     SR leukemia         1 (yes)
21            CC(=O)c1ccc2c3c(n(C)c2c1)CCCC3     SR leukemia          0 (no)
22  N#Cc1c2ccccc2c2n1-c1ccccc1OC(c1ccccc1)C2=O (stereo unspecified)     SR leukemia         1 (yes)
23         c1ccc(-n2nnnc2-c2cccc3ccccc23)cc1     SR leukemia          0 (no)
24    CCN(CC)CCOc1ccccc1-n1c(C)ccc1-c1ccccc1     SR leukemia         1 (yes)
25  NNC(=O)C1CC2c3ccccc3C1c1ccccc12 (stereo unspecified)     SR leukemia          0 (no)
